Listed here are compounds together with their documented ΔTm.
Biological target: Fibroblast growth factor receptor 3 (Homo sapiens) (UniProt P22607)
Sequence (P22607 23-806 limits assumed): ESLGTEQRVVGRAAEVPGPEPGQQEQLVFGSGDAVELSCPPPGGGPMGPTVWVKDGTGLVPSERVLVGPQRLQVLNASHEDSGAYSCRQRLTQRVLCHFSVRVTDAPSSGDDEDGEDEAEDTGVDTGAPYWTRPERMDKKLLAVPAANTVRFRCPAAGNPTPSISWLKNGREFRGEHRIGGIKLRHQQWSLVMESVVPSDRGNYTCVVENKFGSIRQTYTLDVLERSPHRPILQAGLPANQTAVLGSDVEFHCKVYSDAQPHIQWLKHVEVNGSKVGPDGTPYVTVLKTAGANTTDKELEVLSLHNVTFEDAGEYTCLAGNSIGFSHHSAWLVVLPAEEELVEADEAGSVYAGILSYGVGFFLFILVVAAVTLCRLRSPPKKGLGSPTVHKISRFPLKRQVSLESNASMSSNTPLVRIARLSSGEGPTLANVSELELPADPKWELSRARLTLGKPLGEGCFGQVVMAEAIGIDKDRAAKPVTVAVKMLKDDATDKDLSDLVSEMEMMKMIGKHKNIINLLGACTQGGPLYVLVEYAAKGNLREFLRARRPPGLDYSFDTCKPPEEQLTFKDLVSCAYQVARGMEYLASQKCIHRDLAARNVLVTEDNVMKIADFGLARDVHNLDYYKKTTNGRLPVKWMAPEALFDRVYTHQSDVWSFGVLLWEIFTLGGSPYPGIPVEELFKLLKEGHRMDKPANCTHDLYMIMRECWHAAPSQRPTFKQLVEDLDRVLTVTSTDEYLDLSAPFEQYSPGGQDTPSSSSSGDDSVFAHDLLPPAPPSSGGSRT
Conditions: Compound concentration 20.0 uM, Protein concentration 2.0 uM, Result type QC Liability
Description: Thermal Shift Assay. Domain: start/stop: P449-E759
# unit: °C | format: bare number

Cn1c(Nc2c(Cl)cccc2Cl)nc2ccc3nc[nH]c(=O)c3c21
1.31
C=CC1C[C@]1(NC(=O)[C@@H]1C[C@@H](Oc2cc(-c3csc(NC(=O)C(C)C)n3)nc3c(Br)c(OC)ccc23)CN1C(=O)[C@@H](NC(=O)OC1CCCC1)C(C)(C)C)C(=O)O (some centres not stated)
1.41
Cn1nc(-c2ccc(C(N)=O)cc2)c2ccccc2c1=O
1.06
CN(C)C/C=C/C(=O)Nc1cccc(S(=O)(=O)N2CCC(NC(=O)c3n[nH]cc3NC(=O)c3c(Cl)cc(Cl)cc3Cl)CC2)c1
6.8
Cc1cc(-c2nc(-c3ccc(OC(F)(F)F)cc3)no2)nn1Cc1ccnc(N2CCN(C3CC3)CC2)c1
1.28
CN1CCN(C(=O)Cc2ccc(N/C(=C3\C(=O)Nc4cc(Cl)ccc43)c3ccccc3)cc2)CC1
5.68
N=C(N)Nc1cc(C2CCNCC2)cc(C(F)(F)F)c1
0.42
COc1cc(C(=O)NC2CCN(C)CC2)ccc1Nc1ncc2c(n1)N(C1CCCC1)CC(F)(F)C(=O)N2C
0.42

Please list ΔTm recorded for the compound "COc1cc(N[C@@H]2CCCC[C@]2(O)C(F)(F)F)ccc1F"
0.65

Please list ΔTm recorded for the compound "O=C1Nc2ccc(C(=O)c3ccco3)cc2C1=Cc1cc(Cl)c(O)c(Cl)c1"
2.35

Please list ΔTm recorded for the compound "CN(C)C(=O)Cn1cc(-c2ccc(-c3cncc4ccccc34)cc2)cn1"
0.29

Please list ΔTm recorded for the compound "Cc1cc2c(ncn2C2(C)CN(C(=O)c3ccn(CC4CCN([C@H]5C=CCCCC5)CC4)c3)C2)c(N)n1"
0.4
